assay procedure: pKa determination by UV-Vis analysis at varied pH
Type: physicochemical
conditions used: aqueous buffers at varied pH, 0.1% DMSO, read-out: pKa of the titratable proton

- molecule: "COc1ccc(C2(O)N=C3N=CC=C4c5ccccc5N=C2N43)cc1 (stereo not shown)"
  pKa: 5.1

The reported measurements were obtained from patent US10246463B2.
